- STUDY_SYSTEM: T1, human CTLA4 expressed on Jurkat T cells (human, UniProt P16410 36-223)
- T1 construct: whole, on cells; also called hCTLA4; cell surface-expressed hCTLA4
- T1 sequence (P16410 36-223): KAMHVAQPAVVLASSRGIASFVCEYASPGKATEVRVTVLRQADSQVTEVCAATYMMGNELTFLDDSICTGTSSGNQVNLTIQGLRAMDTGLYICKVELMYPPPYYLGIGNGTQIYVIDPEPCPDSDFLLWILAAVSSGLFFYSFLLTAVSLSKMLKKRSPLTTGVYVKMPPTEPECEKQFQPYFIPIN
- ASSAY_INFO: flow cytometry on Jurkat T cells expressing hCTLA4
MEASURED_PROPERTY: EC50 (nM)
Your answer is read as nM, so omit the unit and give the number.

anti-hCTLA4 antibody 7A4 (antibody, human IgG1, V domains shown) VH: QVQLVESGGGVVEPGRSLRLSCTASGFTFSSYGMHWVRQAPGKGLEWVAVIWYQTSEKDYADSAKGRFTISRDNSKNTLYLQMNSLRAEDTAVYYCARAGLLGYFDYWGQGTLVTVSS VL: EIVLTQSPGTLSLSPGERATLSCRASQSVSSYLAWYQQKPGQAPRPLIYGVSSRATGIPDRFSGSGSGTDFTLTISRLEPEDFAVYYCQQYGMYPFTFGPGTKVDIK ... 0.217
anti-hCTLA4 antibody 6E3 (antibody, human IgG1, V domains shown) VH: QVQLVESGGGVVEPGRSLRLSCAASGFTFSSYGMHWVRQAPGKGLEWVAVIWYKTSEKDYADSAKGRFTISRDNSKNTLYLQMNSLRAEDTAVYYCARAGLLGYFDYWGQGTLVTVSS VL: EIVLTQSPGTLSLSPGERATLSCRASQSVTSYLAWYQQKPGQAPRPLIYGVSSRATGIPDRFSGSGSGTDFTLTISRLEPEDFAVYYCQQYGMSPFTFGPGTKVDIK ... 0.437

Supply EC50 value. Item: anti-hCTLA4 antibody 10D4 (antibody, human IgG1, V domains shown, unaltered form; also called Anti-CTLA4 10D4; anti-hCTLA4 #10D4) VH: QVQLVESGGGVVEPGRSLRLSCTASGFTFSSYGMHWVRQAPGKGLEWVAVIWYHPSKKDYADSAKGRFTISRDNSKNTLYLQMNSLRAEDTAVYYCARAGLLGYFDYWGQGTLVTVSS VL: EIVLTQSPGTLSLSPGERATLSCRASQSVTSYLAWYQQKPGQAPRPLIYGVSSRATGIPDRFSGSGSGTDFTLTISRLEPEDFAVYYCQQYGRYPFTFGPGTKVDIK
0.085
